This collection of values is drawn from patent US9340547B2.

- System Under Test: PI3Kδ (PI3 Kd) (Homo sapiens)
- Construct: purchased Millipore
- Sequence (O00329 whole entry): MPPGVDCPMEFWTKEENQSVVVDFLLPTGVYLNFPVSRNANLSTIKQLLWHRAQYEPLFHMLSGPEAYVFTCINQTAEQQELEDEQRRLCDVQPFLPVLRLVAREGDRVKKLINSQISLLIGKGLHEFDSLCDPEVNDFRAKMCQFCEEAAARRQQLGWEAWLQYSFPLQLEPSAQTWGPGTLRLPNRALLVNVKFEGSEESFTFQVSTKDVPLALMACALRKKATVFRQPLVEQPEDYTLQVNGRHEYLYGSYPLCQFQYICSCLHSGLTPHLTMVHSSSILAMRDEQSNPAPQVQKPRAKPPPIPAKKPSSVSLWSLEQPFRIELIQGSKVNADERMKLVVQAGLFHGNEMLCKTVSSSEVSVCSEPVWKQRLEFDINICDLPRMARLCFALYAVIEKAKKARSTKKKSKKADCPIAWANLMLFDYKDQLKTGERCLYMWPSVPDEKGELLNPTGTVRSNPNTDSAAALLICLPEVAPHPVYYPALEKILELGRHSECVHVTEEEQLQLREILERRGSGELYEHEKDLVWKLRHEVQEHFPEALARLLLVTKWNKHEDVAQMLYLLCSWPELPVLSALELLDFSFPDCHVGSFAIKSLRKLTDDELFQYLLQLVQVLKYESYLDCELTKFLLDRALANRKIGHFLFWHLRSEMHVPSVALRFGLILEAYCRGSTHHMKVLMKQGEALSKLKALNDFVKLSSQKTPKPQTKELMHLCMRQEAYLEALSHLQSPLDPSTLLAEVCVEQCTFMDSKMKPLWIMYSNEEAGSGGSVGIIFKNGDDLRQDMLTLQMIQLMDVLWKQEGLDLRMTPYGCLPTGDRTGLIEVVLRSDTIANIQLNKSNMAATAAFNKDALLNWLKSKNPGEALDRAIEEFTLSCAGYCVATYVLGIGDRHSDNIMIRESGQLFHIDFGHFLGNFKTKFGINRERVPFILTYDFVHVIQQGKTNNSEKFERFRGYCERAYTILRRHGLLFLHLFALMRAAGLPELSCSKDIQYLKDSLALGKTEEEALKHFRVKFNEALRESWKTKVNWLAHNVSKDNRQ
- Sequence (P27986 whole entry partner): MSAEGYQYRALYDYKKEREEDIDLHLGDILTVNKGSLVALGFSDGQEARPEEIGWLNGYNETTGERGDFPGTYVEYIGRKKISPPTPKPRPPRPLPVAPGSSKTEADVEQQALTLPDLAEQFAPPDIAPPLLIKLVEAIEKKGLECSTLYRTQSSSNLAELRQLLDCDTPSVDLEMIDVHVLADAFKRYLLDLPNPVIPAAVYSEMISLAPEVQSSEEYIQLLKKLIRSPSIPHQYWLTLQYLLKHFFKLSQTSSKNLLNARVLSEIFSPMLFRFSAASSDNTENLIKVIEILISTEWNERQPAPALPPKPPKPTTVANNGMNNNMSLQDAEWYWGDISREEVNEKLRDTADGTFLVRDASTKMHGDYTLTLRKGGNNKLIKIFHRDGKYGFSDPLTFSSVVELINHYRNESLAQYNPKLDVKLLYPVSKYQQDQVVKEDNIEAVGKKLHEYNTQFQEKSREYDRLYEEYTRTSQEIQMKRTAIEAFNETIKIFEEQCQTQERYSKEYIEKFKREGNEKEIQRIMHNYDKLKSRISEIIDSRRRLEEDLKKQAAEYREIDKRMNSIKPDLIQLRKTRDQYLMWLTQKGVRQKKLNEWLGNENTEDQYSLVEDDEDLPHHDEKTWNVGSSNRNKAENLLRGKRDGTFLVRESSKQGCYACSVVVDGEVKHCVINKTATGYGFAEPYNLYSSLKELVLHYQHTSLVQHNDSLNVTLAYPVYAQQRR
- Assay Details: PI3K HTRF enzymatic inhibition assay (cell-free), PI3Kd
- Assay type: biochemical
pIC50: −log10 of the molar value.
Reported pIC50 values follow for various compounds

{"Compound": "Cc1nc(-c2ccn3nc([C@H](C)Nc4ncnc5[nH]cnc45)n(-c4cc(F)cc(F)c4)c(=O)c23)no1 [Example 125]", "pIC50": 7.05}
{"Compound": "C[C@H](Nc1ncnc(N)c1C#N)c1nn2cc(F)cc2c(=O)n1-c1ccccc1 [Example 75]", "pIC50": 7.77}
{"Compound": "C[C@H](Nc1ncnc2[nH]cc(F)c12)c1nn2cccc2c(=O)n1-c1ccccc1 [Example 81]", "pIC50": 8.05}
{"Compound": "Cc1ccccc1-n1c(Cn2cnc3c(N)ncnc32)nn2ccnc2c1=O [Example 31]", "pIC50": 5.18}
{"Compound": "Cc1ccccc1-n1c(Cn2cnc3c(N)ncnc32)nn2ccc(C(F)(F)F)c2c1=O [Example 25]", "pIC50": 6.46}
{"Compound": "N#Cc1c(N)ncnc1N[C@@H](CO)c1nn2cccc2c(=O)n1-c1cc(F)cc(F)c1 [Example 157]", "pIC50": 7.18}
{"Compound": "C[C@H](Nc1nc(N)nc2[nH]cnc12)c1nn2ccnc2c(=O)n1-c1ccccc1 [Example 64]", "pIC50": 7.16}
{"Compound": "Cc1ccc2c(=O)n(-c3ccccc3)c([C@H](C)Nc3ncnc(N)c3C#N)nn12 [Example 71]", "pIC50": 8.05}
{"Compound": "C[C@H](Nc1ncnc(N)c1C#N)c1nn2ccc(Br)c2c(=O)n1-c1ccccc1 [Example 144]", "pIC50": 9.00}
{"Compound": "C[C@H](Nc1ncnc2[nH]cnc12)c1nn2cccc2c(=O)n1-c1cc(F)cc(F)c1 [Example 37]", "pIC50": 7.82}
{"Compound": "C[C@H](Nc1ccnc2ccnn12)c1nn2cccc2c(=O)n1-c1ccccc1 [Example 54]", "pIC50": 7.22}
{"Compound": "CCCNC(=O)c1ccn2nc([C@H](C)Nc3ncnc(N)c3C#N)n(-c3ccccc3)c(=O)c12 [Example 152]", "pIC50": 6.13}
{"Compound": "C[C@H](Nc1ncnc2[nH]cnc12)c1nn2ccc(C#N)c2c(=O)n1-c1ccccc1 [Example 61]", "pIC50": 8.22}
{"Compound": "Cc1ccccc1-n1c(Cn2cnc3c(N)ncnc32)nn2ccc(Cl)c2c1=O [Example 1]", "pIC50": 6.92}
{"Compound": "C[C@H](Nc1ncnc(N)c1C#N)c1nn2ccc(C#N)c2c(=O)n1C1CCCOC1 (single isomer, unassigned) [Example 129]", "pIC50": 7.42}
{"Compound": "N#Cc1c(N)ncnc1N1CC(F)(F)C[C@H]1c1nn2cccc2c(=O)n1-c1ccccc1 [Example 73]", "pIC50": 7.51}

====

- System Under Test: PI3Kδ (PI3 Kd) (Homo sapiens)
- Construct: purchased Millipore
- Assay Details: PI3K HTRF enzymatic inhibition assay (cell-free), PI3Kd
- Type: biochemical
pIC50: −log10 of the molar value.
Each entry gets Criterion not met if its pIC50 stays under 7, and Criterion met if its pIC50 is 7 or above.

{"Molecule": "C[C@H](Nc1ncnc(N)c1C#N)c1nn2ccc(CN3CCOCC3)c2c(=O)n1-c1ccccc1 [Example 122]", "Assigned Class": "Criterion not met"}
{"Molecule": "CC[C@H](Nc1nc(N)nc2[nH]cnc12)c1nn2cccc2c(=O)n1-c1ccccc1 [Example 17]", "Assigned Class": "Criterion met"}
{"Molecule": "N#Cc1c(N)ncnc1N[C@@H](CCO)c1nn2cccc2c(=O)[nH]1 [Example 165]", "Assigned Class": "Criterion not met"}
{"Molecule": "C[C@H](Nc1ncnc(N)c1C#N)c1nn2ccc(CCO)c2c(=O)n1-c1ccccc1 [Example 159]", "Assigned Class": "Criterion met"}
{"Molecule": "C[C@H](Nc1ncnc(N)c1C#N)c1nn2cccc2c(=O)n1C1CCOCC1 [Example 136]", "Assigned Class": "Criterion met"}
{"Molecule": "C[C@H](Nc1ncnc(N)c1C#N)c1nn2ccc(Br)c2c(=O)n1-c1cccc(C(F)(F)F)c1 [Example 169]", "Assigned Class": "Criterion met"}
{"Molecule": "Nc1ncnc2c1ncn2Cc1nn2ccc(Cl)c2c(=O)n1Cc1ccccc1 [Example 29]", "Assigned Class": "Criterion not met"}
{"Molecule": "Nc1nc(N2CCC[C@H]2c2nn3cccc3c(=O)n2-c2ccccc2)c2nc[nH]c2n1 [Example 56]", "Assigned Class": "Criterion met"}
{"Molecule": "C[C@H](Nc1ncnc(N)c1C#N)c1nn2ccnc2c(=O)n1-c1ccccc1 [Example 50]", "Assigned Class": "Criterion met"}
{"Molecule": "C[C@H](Nc1ncnc(N)c1C#N)c1nn2cccc2c(=O)n1-c1ccccn1 [Example 43]", "Assigned Class": "Criterion met"}
{"Molecule": "C[C@H](Nc1nc(N)nc2[nH]cnc12)c1nn2cccc2c(=O)n1-c1ccccc1 [Example 21]", "Assigned Class": "Criterion met"}
{"Molecule": "C[C@H](Nc1ncnc(N)c1C#N)c1nn2ccc(C#N)c2c(=O)n1-c1cccc(C(F)(F)F)c1 [Example 176]", "Assigned Class": "Criterion met"}
{"Molecule": "C[C@H](Nc1ncnc(N)c1C#N)c1nn2cccc2c(=O)n1-c1cn[nH]c1 [Example 124]", "Assigned Class": "Criterion met"}

====

- System Under Test: PI3Kδ (PI3 Kd) (Homo sapiens)
- Construct: purchased Millipore
- Assay Details: PI3K HTRF enzymatic inhibition assay (cell-free), PI3Kd
- Assay type: biochemical
- Procedure: PI3K α, β, δ and γ Enzymatic Inhibition Assays Compounds were screened for their ability to inhibit PI3Kα (PI3Kα), PI3Kβ (PI3 Kb), PI3Kδ (PI3 Kd) and PI3Kγ (PI3 Kg) using a cell-free based PI3K HTRF™ assay (Millipore, ref. #33-017) All reagents to perform the reactions were prepared according to the manufacturer protocol. All PI3K enzymes were recombinant and were purchased at Millipore. […]
Threshold 10 nM. IC50 below it: TRUE. IC50 at it or above: FALSE.

{"Compound": "CCCOC(=O)c1ccn2nc(C(C)Nc3ncnc(N)c3C#N)n(-c3ccccc3)c(=O)c12 (centres unmarked)", "Assigned Class": "FALSE"}
{"Compound": "Cc1ccn2nc([C@H](C)Nc3ncnc4[nH]cnc34)n(-c3ccccc3)c(=O)c12", "Assigned Class": "TRUE"}
{"Compound": "Cc1ccccc1-n1c(CNc2ncnc(N)c2C#N)nn2cccc2c1=O", "Assigned Class": "FALSE"}
{"Compound": "C[C@H](Nc1ncnc2[nH]cnc12)c1nn2cccc2c(=O)n1-c1ccccc1", "Assigned Class": "FALSE"}
{"Compound": "C[C@H](Nc1ncnc2[nH]cnc12)c1nn2ccc(C(F)(F)F)c2c(=O)n1-c1cc(F)cc(F)c1", "Assigned Class": "TRUE"}
{"Compound": "C[C@H](Nc1ncnc(N)c1C#N)c1nn2ccc(C(F)F)c2c(=O)n1-c1ccccc1", "Assigned Class": "TRUE"}
{"Compound": "C[C@H](Nc1ncnc(N)c1C#N)c1nn2cccc2c(=O)n1C1CCC1", "Assigned Class": "TRUE"}
{"Compound": "Cc1cc(-n2c([C@H](C)Nc3ncnc(N)c3C#N)nn3cccc3c2=O)n[nH]1", "Assigned Class": "FALSE"}
